pIC50: −log10 of the molar value.
Literature pIC50 values, system: PIK3CD (Human) (UniProt O00329).

Examples with answers:
compound_smiles=C[C@H](Nc1ncnc2[nH]cnc12)c1cc2cccc(Cl)c2c(OCC(=O)N2CCCC2)n1 assay_readout=pIC50 reported_measurement="> 7.00"
compound_smiles=Nc1nc2cc(-c3ccc4ncc(N5CCC(O)CC5)nc4n3)ccc2o1 assay_readout=pIC50 reported_measurement="< 5.00"
compound_smiles=COc1ncc(-c2nc(N3CCOCC3)nc3c(CN4CCN(C(=O)N5CCCC5)CC4)csc23)cc1NS(C)(=O)=O assay_readout=pIC50 reported_measurement=8.24
compound_smiles=Cc1ccccc1-n1c(Cn2nc(I)c3c(N)ncnc32)cc2cccc(F)c2c1=O assay_readout=pIC50 reported_measurement="> 6.00"
compound_smiles=Cc1ccccc1-n1c(Cn2nc(Cl)c3c(N)ncnc32)cc2cccc(C)c2c1=O assay_readout=pIC50 reported_measurement="> 7.00"

Consider Cc1cc(-c2ccc3nc(N)oc3c2)cn2c(N3CCN(C)CC3)nnc12 . Its measured pIC50 is < 5.00

Consider COc1ccc(-c2nn(Cc3cc4cccc(C)c4c(=O)n3-c3ccccc3F)c3ncnc(N)c23)cc1OC . Its measured pIC50 is > 6.00

Consider Cc1cccc2cc(Cn3nc(-c4ccc5nc(N)sc5c4)c4c(N)ncnc43)n(-c3ccccc3)c(=O)c12 . Its measured pIC50 is > 7.00
